Let's look at some compounds and their measured logD at 20 min, 10000 µM.
experiment: physchem; conditions: 1-octanol/phosphate buffer, pH 7.4, logD

Illustrative cases are given below, each with its answer.
INSERT INTO results (compound, result) VALUES
  ('CN(C)CC[C@H](c1ccccc1)n1cc(NC(=O)c2n[nH]c3c2CCC(C)(C)C3)cn1', 2),
  ('N#Cc1cccc(Cn2cc(NC(=O)c3n[nH]c4c3CCCC4)cn2)c1', 2.6),
  ('CC1(C)CCc2c(C(=O)Nc3cnn([C@@H](CCS(C)(=O)=O)c4ccccc4)c3)n[nH]c2C1', 2.5),
  ('O=C(Nc1cnn(Cc2ccccc2)c1)c1n[nH]c2c1CCC1(COC1)C2', 2.4),
  ('N#Cc1cccc(Cn2cc(NC(=O)c3n[nH]c4cc(-c5cn[nH]c5)ccc34)cn2)c1', 3.4);

Could you tell me which logD at 20 min, 10000 µM is on file for N#Cc1cccc(Cn2cc(NC(=O)c3n[nH]c4c3CC(c3cn[nH]c3)CC4)cn2)c1 (configuration not stated) ?
2.4

Moving on to the next compound: CC1(C)CCc2c(C(=O)Nc3cnn([C@H](c4ccccc4)C4CCNCC4)c3)n[nH]c2C1
1.3

Moving on to the next compound: CC12Cc3[nH]nc(C(=O)Nc4cnn(Cc5ccccc5)c4)c3CC1C2 (racemic)
3.8

Moving on to the next compound: O=C(Nc1cnn(Cc2ccccc2)c1)c1n[nH]c2c1CCC(F)(F)C2
3.8

Moving on to the next compound: CN(C)CC[C@@H](c1ccccc1)n1cc(NC(=O)c2n[nH]c3c2CCC(C)(C)C3)cn1
2

Moving on to the next compound: CN(C)CC[C@@H](c1cccc(Cl)c1)n1cc(NC(=O)c2n[nH]c3c2CCC(C)(C)C3)cn1
2.7

Moving on to the next compound: O=C(Nc1cnn(Cc2ccccc2)c1)c1n[nH]c2c1CCC1(CC1)C2
3.9

Moving on to the next compound: CC1CCc2c(C(=O)Nc3cnn(Cc4ccccc4)c3)n[nH]c2C1 (racemic)
4

Moving on to the next compound: O=C(Nc1cnn(Cc2ccccc2)c1)c1n[nH]c2c1CCC1(CCOC1)C2 (racemic)
2.2

Moving on to the next compound: CC1(C)CCc2[nH]nc(C(=O)Nc3cnn(Cc4ccccc4)c3)c2C1
4.3

Moving on to the next compound: COC1(C)CCc2c(C(=O)Nc3cnn(Cc4ccccc4)c3)n[nH]c2C1 (racemic)
2.2

Moving on to the next compound: Cc1cccc([C@H](CCN(C)C)n2cc(NC(=O)c3n[nH]c4c3CCC(C)(C)C4)cn2)c1
2.4

====

assay: physchem; details: PBS buffer, pH 7.4, Kinetic_solubility
Let's look at some compounds and their measured log10 solubility kinetic at 24 h, 10000 µM.
Scale: decimal log of solubility kinetic at 24 h, 10000 µM, solubility kinetic at 24 h, 10000 µM in µM.

Illustrative cases are given below, each with its answer.
INSERT INTO assay_data (compound, recorded_number) VALUES
  ('CN(C)CC[C@H](c1ccccc1)n1cc(NC(=O)c2n[nH]c3c2CCC(C)(C)C3)cn1', 1.69),
  ('CC1(CO)CCc2c(C(=O)Nc3cnn(Cc4ccccc4)c3)n[nH]c2C1 (racemic)', 1.89),
  ('CN(C)CC[C@@H](c1ccccc1)n1cc(NC(=O)c2n[nH]c3c2CCC(C)(C)C3)cn1', 1.83),
  ('CN(C)C[C@@H](c1ccccc1)n1cc(NC(=O)c2n[nH]c3c2CCC(C)(C)C3)cn1', 1.62),
  ('CN(C)CC[C@@H](c1cccc(Cl)c1)n1cc(NC(=O)c2n[nH]c3c2CCC(C)(C)C3)cn1', 1.40);

Could you tell me which log10 solubility kinetic at 24 h, 10000 µM is on file for CN(C)CC[C@@H](c1ccccc1)n1cc(NC(=O)c2n[nH]c3cc(-c4cn[nH]c4)ccc23)cn1 ?
1.97

Moving on to the next compound: CC1(C)CCc2c(C(=O)Nc3cnn([C@H](c4ccccc4)C4CCNCC4)c3)n[nH]c2C1
2.01

Moving on to the next compound: N#Cc1cccc(Cn2cc(NC(=O)c3n[nH]c4ccccc34)cn2)c1
0.76
